Tested on: skin redness, skin inflammation, irritation and skin aging
assay.summary: Materials tested for usefulness in the present invention (improving skin appearance, reducing skin redness, inflammation, irritation)
Type: in vivo, humans
condition.set: topical; related materials tested
outcome.measure: usefulness (activity) in the present invention

Solved cases below.
CC1(C)[C@H]2C[C@H]1[C@@](C)(O)[C@@H](O)C2 [(1R,2R,3S,5S-(−))-pinanediol]; do not work
OC1CCCC1O (centres unmarked); do not work
C1CCCCC1; not to be useful
ClC1CCCCC1 [cyclohexyl chloride]; not to be useful
CC1(O)CCCCC1; not to be useful

Provide reported usefulness (activity) in the present invention for each item, in the same order as listed.
1. C1=CCCCC1
2. O=C(O)C1CCCCC1
3. CC(=O)OC1CCCCC1 [cyclohexyl acetate]
4. OCCCCC1CCCCC1
5. OCC1(CO)CC2C=CC1C2 (centres unmarked)
6. CC1CCC(C(C)C)C(O)C1 (centres unmarked)

["not to be useful", "not to be useful", "not to be useful", "not to be useful", "do not work", "not to be useful"]
